# Test system: SW-620 colon
# test method notes: NCI tumour cell line growth inhibition, 48 h
Recorded TGI, one value per entry.

compound	experimental system	TGI
O=S1(=O)OCCOS(=O)(=O)C1(F)Cc1ccccc1	SW-620 colon	> 100 µM
C[C@H]1C[C@@H](n2c(Nc3ccc(OC(F)(F)F)cc3)nc3cc(CCC(=O)O)ccc32)CC(C)(C)C1	SW-620 colon	32.5 µM
CC(C)CC1c2[nH]c3ccccc3c2C[C@H]2C(=O)NC(Cc3c[nH]c4ccccc34)C(=O)N12 (some centres not stated)	SW-620 colon	58.5 µM
Cn1c(=O)nc2n(-c3ccc(Br)cc3)c3ccccc3nc-2c1=O	SW-620 colon	6.57 µM
Nc1cc(CO)cc(Nc2c3ccccc3nc3ccccc23)c1	SW-620 colon	26 µM
Cn1cc(-c2ccc3c4ccccc4n(C)c3c2)c2ccccc21	SW-620 colon	> 100 µM
COc1ccc(N2C(=O)C3ON(Cc4ccc(CC(N)=O)cc4)C(c4c5ccccc5c(C)c5ccccc45)C3C2=O)cc1 (configuration not stated)	SW-620 colon	> 100 µM
COc1cc(/C=C/C(=O)CC(=O)/C=C/c2cc(C)c(O)c(OC)c2)cc(C)c1O	SW-620 colon	> 100 µM
Nc1c(C(=O)c2cccc(-c3cccnc3)c2)cnn1-c1ccc(F)cc1	SW-620 colon	> 25 µM
COc1ccc([N+](=O)[O-])c2c(NCCCN(C)C)c(C)c(C)nc12	SW-620 colon	> 100 µM
CCOP(=O)(OCC)C(c1ccc(F)cc1)N(C(=O)NC(F)(F)F)c1ccc(F)cc1 (configuration not stated)	SW-620 colon	> 100 µM
CC1=C[P+](c2ccccc2)(c2ccccc2)c2ccccc2O1	SW-620 colon	> 100 µM
O=C(Nc1cc(Cl)c(I)c(Cl)c1)C(F)(F)F	SW-620 colon	> 100 µM
Nc1cc(OCC2CCCCC2)nc(N)n1	SW-620 colon	> 100 µM
CCCC(=O)OCC1OC(n2cc(F)c(=O)[nH]c2=O)CC1OC(=O)CCC (configuration not stated)	SW-620 colon	> 10 µM
Cc1cn(S(=O)(=O)c2ccccc2)c2c(OCc3ccccc3)cc([N+](=O)[O-])cc12	SW-620 colon	> 100 µM
CCN1C(=O)N(CC)C2C1NN=c1s/c(=C3\C(=O)Nc4ccccc43)c(=O)n12 (configuration not stated)	SW-620 colon	> 100 µM
CCCCn1c(=O)[nH]c2c(N)ncnc21	SW-620 colon	> 100 µM
O=[N+]([O-])c1ccccc1/C=N\NC(=S)N/N=C/c1ccccc1[N+](=O)[O-]	SW-620 colon	> 100 µM
N=c1oc2cc(O)ccc2cc1C(=O)Nc1ccccn1	SW-620 colon	> 100 µM
CCOC(=O)/C(C(N)=O)=C(\O)C(=O)/C=C(\O)c1ccc(Cl)cc1	SW-620 colon	50.1 µM
CCO/N=C\c1ccc2oc(-c3ccccc3)cc(=O)c2c1	SW-620 colon	> 100 µM

---

# System: 786-0 renal
# test method notes: NCI tumour cell line growth inhibition, 48 h

molecule	experimental system	relation	TGI (µM)
O=c1cc(NNc2ccccc2)[nH]c(=O)[nH]1	786-0 renal	=	29.6
COCN1COCN(C)C1=O	786-0 renal	>	100
O=C1CCCC2=C1CC1=C(CCCC1=O)N2c1ccc(Cl)cc1	786-0 renal	>	100
COc1cc2ncnc(NS(=O)(=O)c3cc4ccccc4s3)c2cc1OC	786-0 renal	>	100
CCCC(=O)OCC1OC(n2cc(F)c(=O)[nH]c2=O)CC1OC(=O)CCC (stereo not given)	786-0 renal	>	10
COc1ccc(-c2c(C#N)c(N)[nH]c(=S)c2C#N)cc1	786-0 renal	=	47.3
COC(=O)CNC(=O)C(=O)c1c(O)c(O)c(C(C)C)c2cc(C)c(-c3c(C)cc4c(C(C)C)c(O)c(O)c(C(=O)C(=O)NCC(=O)OC)c4c3O)c(O)c12	786-0 renal	=	8.77
O=c1c(NCc2ccccc2)c(C2(c3ccccc3F)SCCCS2)c1=O	786-0 renal	>	100
Cc1cn(S(=O)(=O)c2ccccc2)c2c(OCc3ccccc3)cc([N+](=O)[O-])cc12	786-0 renal	>	100
CC(C)(C)OC(=O)NC(CSCc1ccc(C(=O)c2ccccc2)cc1)C(=O)N1CCN(CCCCN2c3ccccc3Sc3cc(N=[N+]=[N-])ccc32)CC1 (stereo not given)	786-0 renal	>	100
COc1ccc(-c2cc(-c3ccc(C)cc3)n(C3OC(COC(C)=O)C(OC(C)=O)C(OC(C)=O)C3OC(C)=O)c(=S)c2C#N)cc1 (stereo not given)	786-0 renal	>	100
CN(C)Cc1ccc(NC(=O)c2cncc(C#Cc3cnc(N)c4ncccc34)c2)cc1C(F)(F)F	786-0 renal	=	3.26
CCCCC[C@@H]1CCCC2NC(CCCCCO[Si](c3ccccc3)(c3ccccc3)C(C)(C)C)CCC21 (stereo not given in full)	786-0 renal	=	33.2
CN(C)S(=O)(=O)c1cccc(C(=O)Nc2nc(-c3ccc(F)c(F)c3)cs2)c1	786-0 renal	=	90.4
CN(C)CCCNc1ccnc2c([N+](=O)[O-])cccc12	786-0 renal	>	100
O=C(O)CCC(O)=C1S(=O)(=O)OCCOS1(=O)=O	786-0 renal	>	100
N=c1oc2ccc3ccccc3c2cc1-c1nc2ccccc2c(=O)[nH]1	786-0 renal	>	100
O=C(O)/C=C/c1c2ccc(=O)c(O)c-2oc2c(O)c(O)ccc12	786-0 renal	=	54.9
COc1ccc(C2=C(c3ccc(OC)cc3)C(=O)OC2)cc1	786-0 renal	=	10.9
CCOC(CBr)OC1C(=O)OCC1(C)C (stereo not given)	786-0 renal	>	100

---

# System: MALME-3M melanoma
# test method notes: NCI tumour cell line growth inhibition, 48 h
readout: TGI

compound	experimental system	result
O=C1c2ccccc2C(=O)N1c1ccc(Cc2ccc(N3C(=O)c4ccccc4C3=O)cc2)cc1	MALME-3M melanoma	> 100 µM
CCOC(=O)NC(Nc1ccc(F)cc1F)(C(F)(F)F)C(F)(F)F	MALME-3M melanoma	> 100 µM
COc1cc(/C=C/c2ccc(OC)c(OC)c2)oc(=O)c1	MALME-3M melanoma	> 250 µM
COc1ccc2c(c1)/C(=C\c1c(Cl)nc3n1CCS3)C(=O)N2	MALME-3M melanoma	> 100 µM
Nc1nnc(N)n1N	MALME-3M melanoma	> 100 µM
CC(=O)OCC1OC(n2c(C)c(C)cc(C#N)c2=S)C(OC(C)=O)C(OC(C)=O)C1OC(C)=O (stereo not given)	MALME-3M melanoma	> 100 µM
O=C(c1ccc(Cl)cc1Cl)N1CCN(C(=O)c2ccc(Cl)cc2Cl)C1=S	MALME-3M melanoma	62.7 µM
O=c1cc(NNc2ccccc2)[nH]c(=O)[nH]1	MALME-3M melanoma	34.4 µM
CC1=NNC(=O)C1C1(C(=O)O)CC(c2c[nH]c3ccccc23)=NC(=S)N1 (stereo not given)	MALME-3M melanoma	74.3 µM
COc1cc(/C=C/C(=O)CC(=O)/C=C/c2cc(C)c(O)c(OC)c2)cc(C)c1O	MALME-3M melanoma	> 100 µM
COc1ccc(/C=C\c2cc(OC)c(OC)c(OC)c2)cc1NC(=O)/C=C/c1ccc(OC)c(OC)c1	MALME-3M melanoma	> 100 µM
O=C(NC(=S)Nc1ccc(Br)cc1)c1ccc2c(c1)Sc1ccccc1O2	MALME-3M melanoma	> 100 µM
CCO/N=C\c1ccc2oc(-c3ccccc3)cc(=O)c2c1	MALME-3M melanoma	43.1 µM
CC1=CC(=O)NP(=O)(Oc2ccc(Cl)cc2)N1 (stereo not given)	MALME-3M melanoma	> 100 µM
O=NNc1ccc(-c2ccccc2)cn1	MALME-3M melanoma	49.8 µM

---

# System: PC-3 prostate
# test method notes: NCI tumour cell line growth inhibition, 48 h

molecule	relation	TGI, µM
COc1ccc(N2C(=O)C3ON(Cc4ccc(CC(N)=O)cc4)C(c4c5ccccc5c(C)c5ccccc45)C3C2=O)cc1 (stereo not given)	>	100
CCOC(=O)/C(C(N)=O)=C(\O)C(=O)/C=C(\O)c1ccc(Cl)cc1	=	38.1
COc1ccc2nc3cc(Cl)ccc3c(Nc3ccccc3-c3ccccc3Nc3c4ccc(Cl)cc4nc4ccc(OC)cc34)c2c1	=	63
Nc1c(C(=O)c2cccc(-c3cccnc3)c2)cnn1-c1ccc(F)cc1	>	25
O=[N+]([O-])c1ccc(Sc2cccc[n+]2[O-])c2nonc12	=	13

---

Below, each entry is listed alongside its reported TGI.
# System: KM12 colon
# test method notes: NCI tumour cell line growth inhibition, 48 h
readout: TGI

molecule	experimental system	readout	result
CCOP(=O)(OCC)C(c1ccc(F)cc1)N(C(=O)NC(F)(F)F)c1ccc(F)cc1 (stereo not given)	KM12 colon	TGI	> 100 µM
CC1[C@@]2(O[C@@H]3C=C4C5CCC6Cc7nc8c(nc7C[C@@]6(C)C5C[C@H](O)[C@@]4(C)[C@]13O)CC1CCc3c(cc4c5c3C(O)C[C@H]5[C@@H](C)C3(O4)OC(C)(C)CC3O)[C@]1(C)C8)O[C@@](C)(CO)C[C@@H]2O (stereo not given in full)	KM12 colon	TGI	> 3.72 µM
N=c1oc2ccc3ccccc3c2cc1-c1nc2ccccc2c(=O)[nH]1	KM12 colon	TGI	43 µM
CC(=O)CC[N+](C)(C)C	KM12 colon	TGI	> 81.5 µM
O=C(CCN1CCCC1)Nc1ccc2c(Nc3ccc(F)cc3)c3ccccc3nc2c1	KM12 colon	TGI	4.11 µM
CCN(CC)Cc1cc(N=Nc2c(O)ccc3c(N=Nc4ccc(O)c(CN(CC)CC)c4)c(O)ccc23)ccc1O	KM12 colon	TGI	> 21.9 µM
O=[N+]([O-])c1ccc(Sc2cccc[n+]2[O-])c2nonc12	KM12 colon	TGI	14.4 µM
Cc1cc(NC(=O)NCCOc2ccc(N3C(N)=NC(N)=NC3(C)C)cc2Cl)ccc1S(=O)(=O)F	KM12 colon	TGI	> 44.3 µM
COC(=O)c1ccc(OCCn2nnc(C(=O)NN)c2C(=O)NN)cc1	KM12 colon	TGI	> 100 µM
COc1ccc(-c2nc(NC(=O)CS(=O)(=O)c3ccc(F)cc3)sc2C)cc1	KM12 colon	TGI	61 µM
O=C(c1ccccc1)c1nc2c(Cl)ccc(Cl)c2cc1C(Br)Br	KM12 colon	TGI	2.55 µM
O=C(Nc1ccccc1C(=O)NCc1ccccc1)/C(=C/c1ccccc1O)NC(=O)c1ccccc1	KM12 colon	TGI	> 100 µM
COc1ccc2nc3cc(Cl)ccc3c(Nc3ccccc3-c3ccccc3Nc3c4ccc(Cl)cc4nc4ccc(OC)cc34)c2c1	KM12 colon	TGI	> 100 µM
O=[N+]([O-])c1ccccc1/C=N\NC(=S)N/N=C/c1ccccc1[N+](=O)[O-]	KM12 colon	TGI	> 100 µM
CN1C/C(=C\c2cccs2)C2=NN(c3ccccc3)C(c3cccs3)C2C1 (stereo not given)	KM12 colon	TGI	> 100 µM
CN1CCN(C2=C(Cl)C(=O)c3ccccc3C2=O)CC1	KM12 colon	TGI	16.7 µM
CN(C)S(=O)(=O)c1cccc(C(=O)Nc2nc(-c3ccc(F)c(F)c3)cs2)c1	KM12 colon	TGI	> 100 µM
C(=N\NC1=NCCCCN1)/c1ccc2ccccc2c1	KM12 colon	TGI	> 100 µM
Cc1nc2c(Cl)cc(Cl)cc2c2c1CCO2	KM12 colon	TGI	> 100 µM
COc1ccc2nc3cc(Cl)ccc3c(Sc3ccc(N)cc3)c2c1	KM12 colon	TGI	19.4 µM
